- Measured Target: HCV polymerase (NS5B) type 1a (Hepatitis C virus genotype 1a)
- Construct: made in house; host or cells: Escherichia coli (by the 'similar method' of the 1b enzyme)
- Procedure Details: Assay of enzyme (HCV polymerase) inhibitory activity, type 1a enzyme
- Assay type: biochemical, HCV type 1a (cloned from the blood of patients)
- Test Context: HCV polymerase inhibitory activity IC50, 1a, type 1a enzyme
pIC50: −log10 of the molar value.
Let's look at some compounds and their measured pIC50.
Assay Metric: pIC50

smiles=CCCc1ccc(CNC(=O)[C@H]2CN(c3cnc4c(C(=O)O)cccc4n3)CCN2S(=O)(=O)c2ccc(CC)cc2)cc1 measured="> 7.00"
smiles=CCCc1ccc(CNC(=O)[C@H]2CN(c3cnc4cnccc4n3)CCN2S(=O)(=O)c2ccc(-c3cccc(O)c3)cc2)cc1 measured="> 7.00"
smiles=O=C(NCc1ccc(OC(F)(F)F)cc1)[C@H]1CN(c2ccc3cnccc3n2)CCN1S(=O)(=O)c1ccc(OC(F)(F)F)cc1 measured="> 7.00"

* * *

- Measured Target: HCV polymerase (NS5B) type 1a (Hepatitis C virus genotype 1a)
- Construct: made in house; host or cells: Escherichia coli (by the 'similar method' of the 1b enzyme)
- Procedure Details: Assay of enzyme (HCV polymerase) inhibitory activity, type 1a enzyme
- Type: biochemical, HCV type 1a (cloned from the blood of patients)
- Test Context: HCV polymerase inhibitory activity IC50, 1a, type 1a enzyme
Assay Metric: IC50

compound="CCCc1nc(C)c(CNC(=O)[C@H]2CN(c3nc4cn[nH]c(=O)c4s3)CCN2S(=O)(=O)c2ccc(OC(F)(F)F)cc2)s1 [Example 909]" assay_metric=IC50 measured="100 to 1000 nM"
compound="O=C(NCc1ccc(OC(F)(F)F)cc1)[C@H]1CN(c2nc3nc(C4CC4)ncc3s2)CCN1S(=O)(=O)c1ccc(OC(F)F)cc1 [Example 1016]" assay_metric=IC50 measured="< 100 nM"
compound="O=C(O)c1ccc(N2CCN(S(=O)(=O)c3ccc(OC(F)(F)F)cc3)[C@@H](C(=O)NCc3ccc(OC(F)(F)F)cc3)C2)nc1 [Example 774]" assay_metric=IC50 measured="< 100 nM"

* * *

- Measured Target: HCV polymerase (NS5B) type 1a (Hepatitis C virus genotype 1a)
- Construct: made in house; host or cells: Escherichia coli (by the 'similar method' of the 1b enzyme)
- Procedure Details: Assay of enzyme (HCV polymerase) inhibitory activity, type 1a enzyme
- Format: biochemical, HCV type 1a (cloned from the blood of patients)
- Test Context: HCV polymerase inhibitory activity IC50, 1a, type 1a enzyme
Assay Metric: IC50

smiles=O=C(O)c1cncc2sc(N3CCN(S(=O)(=O)c4ccc(OC(F)(F)F)cc4)[C@@H](C(=O)NCc4ccc(OC(F)F)c(F)c4)C3)nc12 measured_target="HCV polymerase (NS5B) type 1a (Hepatitis C virus genotype 1a)" assay_metric=IC50 measured="< 100 nM"
smiles=O=C(NCc1ccc(OC(F)(F)F)cc1)[C@H]1CN(c2nc3nnnc(NCCO)c3s2)CCN1S(=O)(=O)c1ccc(OC(F)(F)F)cc1 measured_target="HCV polymerase (NS5B) type 1a (Hepatitis C virus genotype 1a)" assay_metric=IC50 measured="< 100 nM"
smiles=O=C(NCc1ccc(OC(F)(F)F)cc1)[C@H]1CN(c2nc3nc(O)ncc3s2)CCN1S(=O)(=O)c1ccc(OC(F)(F)F)cc1 measured_target="HCV polymerase (NS5B) type 1a (Hepatitis C virus genotype 1a)" assay_metric=IC50 measured="< 100 nM"
smiles=Nc1ncc2sc(N3CCN(S(=O)(=O)c4ccc(OC(F)(F)F)cc4)[C@@H](C(=O)NCc4ccc(OC(F)(F)F)cc4)C3)nc2n1 measured_target="HCV polymerase (NS5B) type 1a (Hepatitis C virus genotype 1a)" assay_metric=IC50 measured="< 100 nM"
smiles=CC(C)(C)c1ncc2sc(N3CCN(S(=O)(=O)c4ccc(C(F)(F)F)cc4)[C@@H](C(=O)NCc4ccc(OC(F)(F)F)cc4)C3)nc2n1 measured_target="HCV polymerase (NS5B) type 1a (Hepatitis C virus genotype 1a)" assay_metric=IC50 measured="< 100 nM"
smiles=CCCc1ccc(CNC(=O)[C@H]2CN(c3nc4ncncc4s3)CCN2S(=O)(=O)c2ccc(OC(F)(F)F)cc2)cc1 measured_target="HCV polymerase (NS5B) type 1a (Hepatitis C virus genotype 1a)" assay_metric=IC50 measured="< 100 nM"

* * *

- Measured Target: HCV polymerase (NS5B) type 1a (Hepatitis C virus genotype 1a)
- Construct: made in house; host or cells: Escherichia coli (by the 'similar method' of the 1b enzyme)
- Procedure Details: Assay of enzyme (HCV polymerase) inhibitory activity, type 1a enzyme
- Type: biochemical, HCV type 1a (cloned from the blood of patients)
- Test Context: HCV polymerase inhibitory activity (IC50), 1a, type 1a enzyme 1.5 μg/ml, 25° C., 60 min
pIC50: −log10 of the molar value.
Consider the following compounds and their measured pIC50 readings.
Assay Metric: pIC50

compound=CC(C)c1ccc(CNC(=O)[C@H]2CN(c3ncc[nH]3)CCN2S(=O)(=O)c2ccc(C(F)(F)F)cc2)cc1 measured_target="HCV polymerase (NS5B) type 1a (Hepatitis C virus genotype 1a)" measured="6.00 to 7.00"
compound=CC(=O)N1CCN(S(=O)(=O)c2ccc(OC(F)(F)F)cc2)[C@@H](C(=O)NCC2CCN(C(=O)OC(C)(C)C)CC2)C1 measured_target="HCV polymerase (NS5B) type 1a (Hepatitis C virus genotype 1a)" measured="< 6.00"
compound=CC(C)c1ccc(CNC(=O)[C@H]2CN(C(=O)Cn3cnnn3)CCN2S(=O)(=O)c2ccc(C(F)(F)F)cc2)cc1 measured_target="HCV polymerase (NS5B) type 1a (Hepatitis C virus genotype 1a)" measured="> 7.00"
compound=O=C(NCc1ccc(-c2cccs2)s1)[C@H]1CN(c2cnc3cncnc3n2)CCN1S(=O)(=O)c1ccc(OC(F)(F)F)cc1 measured_target="HCV polymerase (NS5B) type 1a (Hepatitis C virus genotype 1a)" measured="> 7.00"
compound=COC(=O)c1cnc(N2CCN(S(=O)(=O)c3ccc(C(F)(F)F)cc3)[C@@H](C(=O)NCc3ccc(C(C)C)cc3)C2)s1 measured_target="HCV polymerase (NS5B) type 1a (Hepatitis C virus genotype 1a)" measured="6.00 to 7.00"
compound=COC(=O)c1nc(Cl)c(N2CCN(S(=O)(=O)c3ccc(C(F)(F)F)cc3)[C@@H](C(=O)NCc3ccc(C(C)C)cc3)C2)nc1Br measured_target="HCV polymerase (NS5B) type 1a (Hepatitis C virus genotype 1a)" measured="< 6.00"
compound=CCCc1ccc(CNC(=O)[C@H]2CN(c3cnc(C(=O)O)cn3)CCN2S(=O)(=O)c2ccc(CC)cc2)c(Cl)c1 measured_target="HCV polymerase (NS5B) type 1a (Hepatitis C virus genotype 1a)" measured="> 7.00"
compound=Cc1nc(N2CCN(S(=O)(=O)c3ccc(C(F)(F)F)cc3)[C@@H](C(=O)NCc3ccc(C(C)C)cc3)C2)ncc1C(=O)OCc1ccccc1 measured_target="HCV polymerase (NS5B) type 1a (Hepatitis C virus genotype 1a)" measured="< 6.00"
compound="CC(=O)N1CCN(S(=O)(=O)c2ccc(OC(C)C)cc2)C(C(=O)NCc2ccc(C(F)(F)F)cc2)C1 (stereo not shown)" measured_target="HCV polymerase (NS5B) type 1a (Hepatitis C virus genotype 1a)" measured="< 6.00"
compound=CC(=O)N1CCN(S(=O)(=O)c2ccc3c(c2)CCCC3)[C@@H](C(=O)NCc2ccc(C(C)C)cc2)C1 measured_target="HCV polymerase (NS5B) type 1a (Hepatitis C virus genotype 1a)" measured="6.00 to 7.00"
compound="CC(C)c1ccc(S(=O)(=O)N2CCN(c3nc(-c4ccccc4)cs3)CC2C(=O)NCc2ccc(C(F)(F)F)cc2)cc1 (stereo not shown)" measured_target="HCV polymerase (NS5B) type 1a (Hepatitis C virus genotype 1a)" measured="< 6.00"
compound=COC(=O)c1ncc(N2CCN(S(=O)(=O)c3ccc(C(F)(F)F)cc3)[C@@H](C(=O)NCc3ccc(C(C)C)cc3)C2)nc1N measured_target="HCV polymerase (NS5B) type 1a (Hepatitis C virus genotype 1a)" measured="> 7.00"
compound=Cc1nc(N2CCN(S(=O)(=O)c3ccc(C(F)(F)F)cc3)[C@@H](C(=O)NCc3ccc(C(C)C)cc3)C2)c(C)nc1C(=O)O measured_target="HCV polymerase (NS5B) type 1a (Hepatitis C virus genotype 1a)" measured="< 6.00"

* * *

Attribute: IC50
- Measured Target: HCV polymerase (NS5B) type 1b (Hepatitis C virus genotype 1b)
- Construct: a region encoding NS5B (J Virol 1991 March, 65(3), 1105-13, 544 amino acids after deletion of 47 amino acids on the C-terminal); 6xHis (C); made in house; host or cells: Escherichia coli
- Procedure Details: Assay of enzyme (HCV polymerase) inhibitory activity, type 1b enzyme
- Assay type: biochemical, HCV BK strain (type 1b)
- Test Context: HCV polymerase inhibitory activity (IC50), 1b, type 1b enzyme 0.5 μg/ml, 25° C., 60 min
Assay Metric: IC50

compound=CC(C)(C)c1ccc(CNC(=O)[C@H]2CN(c3nc4nc[nH]c(=O)c4s3)CCN2S(=O)(=O)c2ccc(OC(F)(F)F)cc2)cc1 measured="< 0.1 µM"
compound=CCOC(=O)C(=O)N1CCN(S(=O)(=O)c2ccc(C(F)(F)F)cc2)[C@@H](C(=O)NCc2ccc(C(C)C)cc2)C1 measured="0.1 to 1 µM"
compound=CC(C)c1ccc(CNC(=O)[C@H]2CN(C(N)=S)CCN2S(=O)(=O)c2ccc(C(F)(F)F)cc2)cc1 measured="0.1 to 1 µM"
compound=COC(=O)CCCC(=O)N1CCN(S(=O)(=O)c2ccc(C(F)(F)F)cc2)[C@@H](C(=O)NCc2ccc(C(C)C)cc2)C1 measured="0.1 to 1 µM"
compound="CCC(CC)c1ccc(S(=O)(=O)N2CCN(C(C)=O)CC2C(=O)NCc2ccc(C(F)(F)F)cc2)cc1 (stereo not shown)" measured="> 1 µM"
compound="CC(=O)N1CCN(S(=O)(=O)c2ccc(C(F)(F)F)cc2)C(C(=O)NCc2ccc(C(F)(F)F)cc2)C1 (stereo not shown)" measured="> 1 µM"
compound="COCc1ccc(S(=O)(=O)N2CCN(C(C)=O)CC2C(=O)NCc2ccc(C(F)(F)F)cc2)cc1 (stereo not shown)" measured="> 1 µM"
